Tested Target: T1, PACAP-R3 (human, UniProt P41587 24-438)
T1 sequence (looked up): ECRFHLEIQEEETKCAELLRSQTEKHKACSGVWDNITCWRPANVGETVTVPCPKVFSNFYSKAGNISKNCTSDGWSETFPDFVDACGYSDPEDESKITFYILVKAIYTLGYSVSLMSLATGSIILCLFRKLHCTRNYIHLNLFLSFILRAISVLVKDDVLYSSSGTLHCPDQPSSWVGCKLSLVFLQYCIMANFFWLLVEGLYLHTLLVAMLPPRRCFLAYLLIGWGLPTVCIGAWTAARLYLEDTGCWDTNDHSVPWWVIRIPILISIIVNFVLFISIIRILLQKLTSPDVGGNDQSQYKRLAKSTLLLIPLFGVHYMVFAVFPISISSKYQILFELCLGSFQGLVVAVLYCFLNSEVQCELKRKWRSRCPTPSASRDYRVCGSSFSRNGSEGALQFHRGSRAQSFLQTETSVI
Test: cell-based or functional assay
No end group written: not given here.
The label depends only on R3 EC50: rule met if it is at least 0.7 nM, rule not met if it is smaller.

Threshold query (R3 EC50 >= 0.7 nM) on Ac-HSDAVFTENYTKLRKQLAAKKYLNDLKKGGT (ends and bridges not checked) [R3P2]
rule met
